Data origin, for the record: patent US20130344026A1

# IC50 listing for each entry below
# System: PANC-1 cells
# methodSummary: cell viability assay in PANC-1 cells (compound alone, + 100 ng/ml TNFa, + 300 ng/ml TRAIL)
# Assay type: cell-based
# protocolConditions: with 100 ng/ml TNFa; Tables 15-18; read-out: IC50 (uM) in cell viability assay in PANC-1 cells: Cmpnd + 100 ng/ml TNFa
Form entry: value (µM) — number only.

See these solved cases before continuing.
>>> resultvalue("CN[C@@H](C)C(=O)NC(C(=O)N1CCC[C@H]1C(=O)NC1CCCc2ccccc21)c1ccc(CCc2ccc([C@H](NC(=O)[C@H](C)NC)C(=O)N3CCC[C@H]3C(=O)NC3CCCc4ccccc43)cc2)cc1 (stereo partly shown) [Compound P2-35]")
0.007
>>> resultvalue("CN[C@@H](C)C(=O)N[C@H](C(=O)N1CCCC1C(=O)N[C@H](COCC#CC#CCOC[C@@H](NC(=O)[C@H](C)NC(=O)[C@H](NC(=O)[C@@H](CO)NC)C1CCCCC1)C(C)C)C1CCCCC1)C(C)(C)C (stereo partly shown)")
0.017
>>> resultvalue("CN[C@@H](C)C(=O)N[C@H](C(=O)N1CCC[C@H]1CN(CCCCCCN(CCc1ccccc1)C[C@@H]1CCCN1C(=O)[C@@H](NC(=O)[C@H](C)NC)C(C)(C)C)CCc1ccccc1)C(C)(C)C")
0.022

Look up IC50 for this compound: `C#CC[C@H](NC(=O)[C@H](C)NC)C(=O)N1C[C@@H](NC(=O)c2cccc(C(=O)N[C@H]3C[C@@H](C(=O)N[C@@H]4CCCc5ccccc54)N(C(=O)[C@@H](NC(=O)[C@H](C)NC)C(C)(C)C)C3)c2)C[C@H]1C(=O)N[C@@H]1CCCc2ccccc21` 0.008

Look up IC50 for this compound: CN[C@@H](C)C(=O)N[C@@H](CCCCNC(=O)c1cccc(C(=O)NCCCC[C@H](NC(=O)[C@H](C)NC)C(=O)N2CCC[C@H]2Cn2nnnc2Sc2ccccc2)c1)C(=O)N1CCC[C@H]1Cn1nnnc1Sc1ccccc1 [Compound P2-48] 0.263

Look up IC50 for this compound: `CN[C@@H](C)C(=O)N[C@H](C(=O)N1CCC[C@H]1CN(CCc1ccccc1)C(=O)CCC#CC#CCCC(=O)N(CCc1ccccc1)C[C@@H]1CCCN1C(=O)[C@@H](NC(=O)[C@H](C)NC)C(C)(C)C)C(C)(C)C` 0.151

Look up IC50 for this compound: CN[C@@H](C)C(=O)N[C@@H](CCC(=O)Nc1cccc(CCc2cccc(NC(=O)CC[C@H](NC(=O)[C@H](C)NC)C(=O)N3CCC[C@H]3C(=O)N[C@@H]3CCCc4ccccc43)c2)c1)C(=O)N1CCC[C@H]1C(=O)N[C@@H]1CCCc2ccccc21 [Compound P2-44] 0.017

Look up IC50 for this compound: CN[C@@H](C)C(=O)N[C@@H](CCNCc1ccc(CNCC[C@H](NC(=O)[C@H](C)NC)C(=O)N2CCC[C@H]2C(=O)N[C@@H]2CCCc3ccccc32)cc1)C(=O)N1CCC[C@H]1C(=O)N[C@@H]1CCCc2ccccc21 [Compound P2-43] 0.012

Look up IC50 for this compound: `CN[C@@H](C)C(=O)N[C@H](C(=O)N1CCC[C@H]1CN(CCc1ccccc1)C(=O)C(F)(F)F)[C@@H](C)OCC#CC#CCN(C(=O)[C@H](C)NC)[C@H](C(=O)N1CCC[C@H]1CN(CCc1ccccc1)C(=O)C(F)(F)F)[C@@H](C)O` 0.005

Look up IC50 for this compound: `CN[C@@H](C)C(=O)N[C@H](C(=O)N1CCC[C@H]1CN(CC#CC#CCN(CCc1ccccc1)C[C@@H]1CCCN1C(=O)[C@@H](NC(=O)[C@H](C)NC)C(C)(C)C)CCc1ccccc1)C(C)(C)C` 0.061

Look up IC50 for this compound: CN[C@@H](C)C(=O)N[C@@H](CC(=O)NCC#CC#CCNC(=O)C[C@H](NC(=O)[C@H](C)NC)C(=O)N1CCC[C@H]1C(=O)N[C@@H]1CCCc2ccccc21)C(=O)N1CCC[C@H]1C(=O)N[C@@H]1CCCc2ccccc21 [Compound P2-41] 0.094

Look up IC50 for this compound: CN[C@@H](C)C(=O)N[C@H](C(=O)N1C[C@H](NC(=O)c2ccc(CCc3ccc(C(=O)N[C@@H]4C[C@@H](C(=O)N[C@@H]5CCCc6ccccc65)N(C(=O)[C@@H](NC(=O)[C@H](C)NC)C(C)(C)C)C4)cc3)cc2)C[C@H]1C(=O)N[C@@H]1CCCc2ccccc21)C(C)(C)C [Compound P2-46] 0.0007

Look up IC50 for this compound: CN[C@@H](C)C(=O)N[C@@H](CCCCNC(=O)CCCCCCC(=O)NCCCC[C@H](NC(=O)[C@H](C)NC)C(=O)N1CCC[C@H]1C(=O)N[C@@H]1CCCc2ccccc21)C(=O)N1CCC[C@H]1C(=O)N[C@@H]1CCCc2ccccc21 [Compound P2-34] 0.04

Look up IC50 for this compound: CN[C@@H](C)C(=O)N[C@@H](CCNC(=O)c1ccc(-c2ccc(C(=O)NCC[C@H](NC(=O)[C@H](C)NC)C(=O)N3CCC[C@H]3C(=O)N[C@@H]3CCCc4ccccc43)cc2)cc1)C(=O)N1CCC[C@H]1C(=O)N[C@@H]1CCCc2ccccc21 [Compound P2-50] 0.067

Look up IC50 for this compound: CN[C@@H](C)C(=O)N[C@H](C(=O)N1CCCC1C(=O)N[C@H](COCC#CC#CCOC[C@@H](NC(=O)[C@H](C)NC(=O)[C@H](NC(=O)[C@@H](C)NC)C1CCCCC1)C(C)C)C1CCCCC1)C(C)(C)C (stereo partly shown) 0.0007

Look up IC50 for this compound: CN[C@@H](C)C(=O)N[C@@H](CCCCNC(=O)c1cccc(C(=O)NCCCC[C@H](NC(=O)[C@H](C)NC)C(=O)N2C[C@@H](Oc3ccccc3)C[C@H]2C(=O)N[C@@H]2CCCc3ccccc32)c1)C(=O)N1C[C@@H](Oc2ccccc2)C[C@H]1C(=O)N[C@@H]1CCCc2ccccc21 [Compound P2-36] 0.079
